test: protein stability index of a GFP-peptide fusion (GPS, HEK-293T) (PSI 1-6); higher = more stable; details: treatment: MLN4924 1 uM, 8 h; c terminus: a fixed tail appended;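 further: 24-mer peptide tiles fused after GFP, lentivirally expressed, FACS-sorted into six equal bins by GFP/DsRed ratio, decoded by Illumina sequencing, PSI is the read-weighted mean bin number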
Cut-off 3 on protein stability index, inclusive. At or above means YES; below means NO.

Primary sequence: LTMTFPAGIVRVFSGTPPPPVLSF [FCHO1]
Label value: YES
//
Primary sequence: RESPSFKLEPMETERSPGPRLQEL [ZNF263]
Label value: YES
//
Primary sequence: APLLPHITATSLLGTRESDTEVIT [BCL2L13]
Label value: YES
//
Primary sequence: VSGFCRSPPVMVAGGRVFVLPCIQ [FLOT1]
Label value: NO
//
Primary sequence: SVWQHIDCMGIDRQHIPDTYLCER [KMT2E]
Label value: NO
//
Primary sequence: NIQAGINENDFYDGAWCAGRNDLQ [CPXM2]
Label value: YES
//
Primary sequence: HECILPFVQVKGNFARLQTCISEL [M1AP]
Label value: NO
//
Primary sequence: MMMMGPKEEEQSCEYETRLPGNHS [ZNF232]
Label value: YES
//
Primary sequence: KDIVQTVRSRLEEAGIKVHDVRLN [TENT5C]
Label value: NO
//
Primary sequence: MCMVMRGVQKMNSKTVTSTMLGVF [GCH1]
Label value: NO
//
Primary sequence: TLPEYRVSVPENLPVGTQLLTVTA [PCDHGA10]
Label value: YES
//
Primary sequence: VTKLCVQFLNDQISVQNYKQVCKI [KLHL14]
Label value: NO
//
Primary sequence: EYLSLVKGGQDVKKKVHLSEKIHP [PRIM1]
Label value: NO
//
Primary sequence: VSTMRCKTRQKSEKQMEEKRRANQ [PPEF2]
Label value: YES
//
Primary sequence: VENKEKDSNMPHFQTLQAIVSHFQ [CEP70]
Label value: YES
//
Primary sequence: YWDGSGHRRTVKMRKGNTMQQFLQ [FAM50A]
Label value: NO
//
Primary sequence: FNSILPGVLILFLTFFAFLHCWLN [SOAT1]
Label value: NO
//
Primary sequence: QQVPMPPGQEAQRVVCGIDSSMIL [NEK8]
Label value: YES
//
Primary sequence: GGGSYGKLFESVECYDPRTQQWTA [GAN]
Label value: YES
//
Primary sequence: VVEEVRRRATSGGKWPQVLFFPEG [LPCAT4]
Label value: YES
//
Primary sequence: RNLDASPTYKGLLMSLQNQLKESK [CEP70]
Label value: YES
//
Primary sequence: SPLHLVQMPPVIVETARSHQRSSS [PI4K2A]
Label value: YES
//
Primary sequence: EKFSDEGDSDSALDSVSPCPSSPK [DLC1]
Label value: YES
//
Primary sequence: WEPRRDMWVRFRAFEAARDLDACA [ZSWIM9]
Label value: NO
//
Primary sequence: FVAFALCMFCLYSFMPLVIKVTSA [SLC35F2]
Label value: YES
//
Primary sequence: RDLPDTPRRFTFYPCVLATEGFTS [TRIM39]
Label value: NO
//
Primary sequence: NVPNVCRMYCSDLLNPNLKDTVIC [SPACA3]
Label value: NO
//
Primary sequence: EVESLTAARNACRAGTEPSDAIRV [TRIP13]
Label value: YES
//
Primary sequence: RRLYEKKIFEYETQRRRLSPPSSS [EMD]
Label value: YES
//
Primary sequence: DGPGGNLAHAFQPGPGIGGDAHFD [MMP1]
Label value: YES
//
Primary sequence: GAYSSASSFSRPLGYPYVNSVSSH [DLX1]
Label value: YES
//
Primary sequence: VVKLENGEIETIARFGSGPCKTRD [APMAP]
Label value: YES
//
Primary sequence: FTLGTNAIIISTIVLDRALHIPMY [OR10K2]
Label value: NO
//
Primary sequence: ANSAFAVDLFKQLCEKEPLGNVLF [SERPINB5]
Label value: NO
//
Primary sequence: SLYRDIRDIQDENQLLVADVKRLG [STX11]
Label value: YES
//
Primary sequence: EEGPTVVLNPHPSLGYKEIRKGES [CHGA]
Label value: YES
//
Primary sequence: TVFCLVVIFALCWFPLHLSRILKK [EDNRA]
Label value: NO
//
Primary sequence: ENVLHFKAQGHGAKGDNVYEFHLE [HACD3]
Label value: YES
//
Primary sequence: ELAEATWCGISTDMWRSENQNRAY [ZBED1]
Label value: NO
//
Primary sequence: EDENIEVVYSKAASVPKVETVKSD [EIF5]
Label value: YES
//
Primary sequence: ERVYSLQHLDPQGAQELLEFTIRD [INTS4]
Label value: YES
//
Primary sequence: SWPRASPASGASSIKPEASQMPPP [SCNN1D]
Label value: YES
//
Primary sequence: NQQLRNELQLEQSRAANQEQRAND [CEP70]
Label value: YES
//
Primary sequence: SQLSMKAGLENTVAETECRYALQL [KRT13]
Label value: YES
//
Primary sequence: SLSGVMLTDVSPEPLQALLERASA [PRAME]
Label value: YES
//
Primary sequence: LGVDTAETSYLEMAAGSEPESVEA [KMT2E]
Label value: YES
